Experiment: TOX21_p53_BLA_p3_viability: Viability Assessment in the Tox21 HCT-116 p53 Agonism Beta-lactamase Assay, Phase 3 (AID 2283593);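 further: cells exposed to compound for 16 h before reading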
Results filed as inconclusive are left out. Active and inactive are the calls of the source. How the source made its calls: active means hit-call score of the fitted dose curve at least 0.9, where 1 is the maximum; inconclusive means response in the unintended direction; inactive means score below 0.9.
Outcomes: class 1 = active, class 0 = inactive

INSERT INTO measurements (compound, assigned_label) VALUES
  ('CN(C)CCCCl', 'class 0'),
  ('COCCOC(=O)C1=C(C)NC(C)=C(C(=O)OC/C=C/c2ccccc2)C1c1cccc([N+](=O)[O-])c1 (stereo unspecified)', 'class 0'),
  ('CO[C@@]1(NC(=O)CSCC#N)C(=O)N2C(C(=O)O)=C(CSc3nnnn3C)CS[C@@H]21', 'class 0'),
  ('CC1=C(/C=C/C(C)=C/C=C/C(C)=C\C(=O)O)C(C)(C)CCC1', 'class 1'),
  ('Cc1occc1SSc1ccoc1C', 'class 0'),
  ('CN(C)CCOCCN(C)CCO', 'class 0'),
  ('C=CC1=C(C(=O)O)N2C(=O)[C@@H](NC(=O)C(=NOCC(=O)O)c3csc(N)n3)[C@H]2SC1', 'class 0'),
  ('Cc1nc2ccccc2n1Cc1ccc(Cl)cc1', 'class 0'),
  ('COc1ccc(C(=O)c2ccc(C)cc2)c(O)c1', 'class 0'),
  ('Cc1cc(O)c(C(C)(C)C)cc1Sc1cc(C(C)(C)C)c(O)cc1C', 'class 1'),
  ('C[C@@H]1CN(CCCn2c3ccccc3c3ccccc32)C[C@H](C)N1', 'class 0');

* * *

Assay: TOX21_p53_BLA_p5_viability: Viability Assessment in the Tox21 HCT-116 p53 Agonism Beta-lactamase Assay, Phase 5 (AID 2283600)
Inconclusive results are not listed. The source made the active and inactive calls. Rule for the calls: active = hit-call score of the fitted dose curve at least 0.9, where 1 is the maximum; inconclusive = response in the unintended direction; inactive = score below 0.9.
Outcomes: Y = active, N = inactive

INSERT INTO assay_data (compound, assigned_label) VALUES
  ('N#CCc1ccccc1[N+](=O)[O-]', 'N'),
  ('CC(=O)c1cccc([N+](=O)[O-])c1', 'N'),
  ('CC(=C(CCO)SSC(CCO)=C(C)N(C=O)Cc1cnc(C)nc1N)N(C=O)Cc1cnc(C)nc1N', 'N'),
  ('CC(=O)O[C@H]1C[C@@H]2CC[C@@H]3[C@H](CC[C@@]4(C)[C@H]3C[C@H]([N+]3(C)CCCCC3)[C@@H]4OC(C)=O)[C@@]2(C)C[C@@H]1N1CCCCC1', 'N'),
  ('OCCc1ccccn1', 'N'),
  ('CCCCCCOc1ccc(C(=N)N(CCCC)CCCC)c2ccccc12', 'Y'),
  ('CN(C(=O)c1c(O)c2ccccc2n(C)c1=O)c1ccccc1', 'N'),
  ('c1cc2ccc3ccc4ccc5cccc6c(c1)c2c3c4c56', 'N'),
  ('CCCCCCCCCI', 'N'),
  ('CC(C(=O)O)c1ccc2c(c1)[nH]c1ccc(Cl)cc12 (stereo not given)', 'N'),
  ('COc1cc(OC)cc(OC)c1', 'N'),
  ('CC1(C)S[C@@H]2[C@H](NC(=O)Cc3ccccc3)C(=O)N2[C@H]1C(=O)O (tested in a mixture with another compound)', 'N'),
  ('O=C(CCc1ccc(O)cc1)c1c(O)cc(O)cc1O', 'N'),
  ('Cc1cccc2sc(N)nc12', 'N'),
  ('C/C=C/C=C/CO', 'N'),
  ('CC(=O)OC(OC(C)=O)c1ccc([N+](=O)[O-])o1', 'Y'),
  ('S=C1SCN(Cc2ccccc2)CN1Cc1ccccc1', 'N'),
  ('CC(C)[C@@H](N)C(=O)O', 'N'),
  ('CC(C)(C)NC[C@H](O)COc1cccc2c1CCCC2=O', 'N'),
  ('CCCc1c(OCCCCc2nn[nH]n2)ccc(C(C)=O)c1O', 'N'),
  ('Fc1ccc([C@@H]2CCNC[C@H]2COc2ccc3c(c2)OCO3)cc1', 'N'),
  ('CCCNC(C)C(=O)Nc1c(C)csc1C(=O)OC (stereo not given)', 'N'),
  ('CC1CN(c2ccccc2)NC1=O (stereo not given)', 'N'),
  ('CNCC(O)c1ccc(OC(=O)C(C)(C)C)c(OC(=O)C(C)(C)C)c1 (stereo not given)', 'N'),
  ('NC(N)=NCc1cccc(I)c1', 'N');
